Quick reference: fluorescence fold increase of the listed items.
assay: intrinsic fluorescence of library compounds, ex339/em460 – biochemical, MLSMR library, data from DPM-DC assay, artefact control, profiling panel (AID 709); details: compound autofluorescence, ex339/em460 nm, NADH buffer; at 10 µM; hits give high values; 1 = no-compound wells, NADH background;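 note: signal is the first read of a kinetic run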
Hit rate of the full screen: of about 65,000 compounds, about 3,600 (5.5%) were called active. The sample holds actives, similar compounds and a random draw of the others, so the mix is not that of the screen.
experimental endpoint: fluorescence fold increase

smiles structure: Fc1ccccc1CCNc1nnnn1-c1ccccc1
value reported: 1.11
//
smiles structure: CC(=O)c1ccc(NC(=O)N[C@@H](Cc2ccccc2)C(=O)O)cc1
value reported: 1.09
//
smiles structure: Cc1ccc2c(c1)sc1ncc(NC(=O)c3ccccc3)c(=O)n12
value reported: 2.43
//
smiles structure: Cc1ccccc1NC(=O)c1ccccc1
value reported: 1.09
//
smiles structure: CC(=O)c1cccc(NC(=O)c2ccncc2)c1
value reported: 1.03
//
smiles structure: Cc1ccc(C(=O)NCCNS(=O)(=O)c2ccccc2)cc1
value reported: 1.02

Provenance of the data: PubChem BioAssay AID709
